system: KM12 colon; assay: NCI tumour cell line growth inhibition, 48 h; in the data active = GI50 below about 0.43 µM; inactive = the rest
Your response should consist of one outcome taken from 1 (active), 0 (inactive)

Data request: For O=C1C(Cl)=C(Nc2cccc(Cl)c2)C(=O)N1Cc1ccccc1 , which call appears in the assay record?
Data returned: 0

Data request: For C=CC[n+]1c(/C=C/C=C2\N(C)c3ccccc3C2(C)C)sc2ccc(OC)cc21 , which call appears in the assay record?
Data returned: 1

Data request: For FC(F)(F)Oc1cccc(-c2cnc3ccc(-c4ccncc4)nn23)c1 , which call appears in the assay record?
Data returned: 0

Data request: For CCN(CC)CCOCC[C@H]1CC[C@H]2[C@@H]3[C@H](C)Cc4cc(OS(N)(=O)=O)ccc4[C@H]3CC[C@]12C , which call appears in the assay record?
Data returned: 0

Data request: For O=C(Nc1ccc(Cl)c(Cl)c1)c1cccc(NC2=C(Cl)C(=O)N(Cc3ccccc3)C2=O)c1 , which call appears in the assay record?
Data returned: 0

Data request: For FC(F)(F)c1nc(N2CCCC2)ncc1-c1nnnn1-c1ccc(Cl)cc1 , which call appears in the assay record?
Data returned: 0

Data request: For CC(=O)OC1C(C)OC(Oc2c(C)c3c4c(c2O)[C@@H](C)CC[C@@H]4[C@@H](C)C[C@H]3C=C(C)C)C(O)C1O (stereo partly drawn) , which call appears in the assay record?
Data returned: 0

Data request: For COc1cc2c3c(n(CCCN)c(=O)c2cc1OC)-c1ccccc1C3=O , which call appears in the assay record?
Data returned: 0

Data request: For CCSCC1CC(O)(c2ccccc2)C(c2ccccc2)C(c2ccc(Cl)cc2)O1 (stereo not drawn) , which call appears in the assay record?
Data returned: 0

Data request: For CCOC(=O)c1c2c(c(O)c3ccccc3c(O)n(Cc3ccc(OC)cc3)c1C)C(=O)C=CC2=O , which call appears in the assay record?
Data returned: 0

Data request: For Cn1cc(-c2ccc3c(Nc4cccc(NC(=O)Nc5cccc(F)c5)c4)ncnc3c2)cn1 , which call appears in the assay record?
Data returned: 0

Data request: For O=C(NC1CCN(Cc2ccccc2)CC1)c1cc(-c2ccncc2)nc2ccc(Cl)cc12 , which call appears in the assay record?
Data returned: 0

Data request: For Cc1ccc([N+](=O)[O-])cc1NC(=O)Nc1cccc(F)c1 , which call appears in the assay record?
Data returned: 0

* * *

Exercise: for every item that follows, state its recorded TGI.
test system: CCRF-CEM leukemia; assay: NCI tumour cell line growth inhibition, 48 h
Where a SMILES comes first, the peptide text is derived from it. The star is where a group is joined. Boc = CC(C)(C)OC(=O)*; Bz = O=C(c1ccccc1)*

Data request: TGI for Cc1ccc(-c2nc(C)c(C(=O)Nc3ccc(Cl)cc3)s2)cc1 ?
Data returned: > 100 µM

Data request: TGI for CC(C)/C=C1\CCC(CN2CCCC2)C1=O (stereo not given) ?
Data returned: 17.3 µM

Data request: TGI for COc1cc(C2c3[nH]c4ccccc4c3C[C@H]3COC(=O)N23)cc(OC)c1OC (stereo not given in full) ?
Data returned: 0.0789 µM

Data request: TGI for O=[N+]([O-])c1nc(-c2ccccn2)[nH]c1[N+](=O)[O-] ?
Data returned: > 100 µM

Data request: TGI for CC1(C#N)N(C(=O)c2ccccc2)c2ccccc2N1C(=O)c1ccccc1 ?
Data returned: 77.9 µM

Data request: TGI for CC(NC(=O)C(Cc1ccc(OC(=O)c2ccccc2)cc1)NC(=O)OC(C)(C)C)C(=O)NC(Cc1ccccc1)C(=O)NCC(N)=O (stereo not given) (Boc-Y(Bz)AFG-NH2; configuration not given here) ?
Data returned: > 100 µM

Data request: TGI for CCOC(=O)C1(C(N)=O)C(=O)c2ccncc2C1=O (stereo not given) ?
Data returned: > 100 µM

Data request: TGI for CCSCC1CC(O)(c2ccccc2)C(c2ccccc2)C(c2ccc(Cl)cc2)O1 (stereo not given) ?
Data returned: 6.5 µM

Data request: TGI for COc1cc(C=O)ccc1Oc1nnnn1-c1ccccc1 ?
Data returned: 52.4 µM

Data request: TGI for CC1=NCCN=C(C)C1N=Nc1ccc2nc(C)[nH]c2c1 ?
Data returned: 16.8 µM

Data request: TGI for COc1cc2c(/C=C3/C(=O)N(C)c4ccccc43)c(Cl)[nH]c2cc1C ?
Data returned: > 26.8 µM

Data request: TGI for CCC(C#N)(c1ccccc1)N(CCc1ccccc1)C(=O)c1ccccc1 (stereo not given) ?
Data returned: > 100 µM

Data request: TGI for Cc1ccc([N+](=O)[O-])cc1NC(=O)Nc1cccc(F)c1 ?
Data returned: > 100 µM

Data request: TGI for NC1=NC(=O)/C(=C/c2ccccc2[N+](=O)[O-])C(N)=N1 ?
Data returned: > 100 µM

Data request: TGI for CCC1=NC(N/N=C/c2ccco2)=N/C1=C\c1ccccc1O ?
Data returned: 70.4 µM

Data request: TGI for COc1cc(/C=C/c2ccncc2)cc(OC)c1OC ?
Data returned: > 100 µM

Data request: TGI for C=CCn1c(=O)c2ccccc2[n+]2c(C)c(C(=O)OCC)sc12 ?
Data returned: > 100 µM

Data request: TGI for O=C1[C@@H]2C(c3ccccc3Br)=NO[C@@H]2C(=O)N1c1ccc(Cc2ccc(N3C(=O)[C@H]4C(c5ccccc5Br)=NO[C@H]4C3=O)cc2)cc1 ?
Data returned: > 100 µM

Data request: TGI for COc1ccc2[nH]c(=O)c3c4ccccc4cn3c2c1 ?
Data returned: 1.48 µM

Data request: TGI for O=C(Nc1ccccc1-c1n[nH]c(=S)[nH]c1=O)C(F)(F)F ?
Data returned: > 100 µM

Data request: TGI for COc1cccc(C2c3cc4c(cc3OC(C)(N3CCCC3)C2C)OCO4)c1OC (stereo not given) ?
Data returned: 35.7 µM

Data request: TGI for COc1c(C=O)c2c(c(OC)c1OC)-c1ccc(OC)c(=O)cc1[C@@H](NC(C)=O)CC2 ?
Data returned: > 100 µM

Data request: TGI for N#Cc1ccccc1NC(=O)/C(=N\N)C(C(=O)c1ccncc1)C1OC(=O)c2ccccc21 (stereo not given) ?
Data returned: > 100 µM

Data request: TGI for CC1CC[C@]2(C(=O)O)CCC3(COC(=O)/C=C\c4ccc(O)cc4)C(=CCC4[C@@]5(C)CC[C@H](O)C(C)(C)C5CC[C@]43C)[C@@H]2[C@H]1C (stereo not given in full) ?
Data returned: 81.9 µM

Data request: TGI for COc1cc(Cc2cc3c(c(C(=O)O)c2Br)OCO3)cc(OC)c1OC ?
Data returned: > 100 µM

Data request: TGI for O=C(Nc1nnc(-c2ccccc2)o1)C(SC(=S)N1CCCCC1)c1ccccc1 (stereo not given) ?
Data returned: 14.1 µM

Data request: TGI for COC(=O)CCc1cc(OC)c(O)c(C(Cc2ccc(OC)c(OC)c2)C(=O)OC)c1 (stereo not given) ?
Data returned: > 100 µM

Data request: TGI for CCOC(=O)c1ccc(Nc2cnc3cc(C(F)(F)F)ccc3n2)cc1 ?
Data returned: > 100 µM

Data request: TGI for CCc1ccc(N=Cc2cc(OC)c(OC)c(OC)c2)cc1 ?
Data returned: > 100 µM

Data request: TGI for CN(C)c1ccc(/C=c2/c3ccccc3n3c2c2ccccc2[n+]3C)cc1 ?
Data returned: 1.23 µM

Data request: TGI for Cc1ccc(S(=O)(=O)c2c(N)c3nc4ccccc4n3c3nc4ccccc4nc23)cc1 ?
Data returned: > 100 µM

Data request: TGI for CCOC(=O)c1ccc2[nH]c(-c3ccc(S(=O)(=O)F)cc3)cc(=O)c2c1 ?
Data returned: > 100 µM

Data request: TGI for CC(C)(C)NNC(=O)/C(=C/c1ccc([N+](=O)[O-])cc1)NC(=O)c1ccccc1 ?
Data returned: 99.1 µM

Data request: TGI for CO/N=C(\C)c1ccc(Nc2c3ccccc3nc3occc23)cc1 ?
Data returned: 35.9 µM

Data request: TGI for Nc1sc2c(c1C(=O)c1ccc(Cl)c(Cl)c1)CCCC2 ?
Data returned: > 100 µM

Data request: TGI for CCCCON(OC(=O)c1ccccc1)C(=O)c1ccccc1 ?
Data returned: > 100 µM

Data request: TGI for O=c1c2cc(-c3ccccc3)sc2nc2n1N=C(c1ccccc1)CS2 ?
Data returned: > 100 µM

Data request: TGI for Cc1cc2nc(C(C)C(=O)c3ccc(Cl)cc3)c(=O)[nH]c2cc1C (stereo not given) ?
Data returned: > 100 µM

Data request: TGI for COc1ccc(C(=O)c2cc(OC)c(OC)c(OC)c2)cc1 ?
Data returned: > 100 µM

Data request: TGI for O=C(/C=C1\N=C(c2ccccc2)N(c2nc3ccc(Sc4ccccc4)cc3[nH]2)C1=O)/C=C/c1ccccc1 ?
Data returned: > 100 µM

* * *

system: HOP-62 NSCLC; test: NCI tumour cell line growth inhibition, 48 h
Exercise: for every item that follows, state its recorded TGI.

Data request: TGI for CCC(C#N)(c1ccccc1)N(CCc1ccccc1)C(=O)c1ccccc1 (centres undefined) ?
Data returned: 50.8 µM

Data request: TGI for O=[N+]([O-])c1ccc(S(=O)(=O)Cc2ccccc2)c([N+](=O)[O-])c1 ?
Data returned: 9.13 µM

Data request: TGI for CN(Cc1cnc2nc(N)nc(N)c2n1)c1ccc(C(=O)NC(CCC(=O)O)C(=O)O)cc1C(F)(F)F (centres undefined) ?
Data returned: > 100 µM

Data request: TGI for NC(Cc1ccc(S(=O)(=O)O)cc1)C(=O)NC(CCCCNC(=O)NCCCCC(NC(=O)C(N)Cc1ccc(S(=O)(=O)O)cc1)C(=O)NC(Cc1ccc(S(=O)(=O)O)cc1)C(=O)O)C(=O)NC(Cc1ccc(S(=O)(=O)O)cc1)C(=O)O (centres undefined) ?
Data returned: > 100 µM

Data request: TGI for CCC(C)n1c(C)nc2c1C(=O)c1ccccc1C2=O (centres undefined) ?
Data returned: > 100 µM

Data request: TGI for O=S(=O)(O)c1c(Cl)cc(O)c2ncccc12 ?
Data returned: > 100 µM

Data request: TGI for Cc1ccccc1C(=O)c1c(O)c2c(c(O)c1Br)CCCC2 ?
Data returned: > 100 µM

Data request: TGI for O=C1OC(c2ccccc2)=N/C1=C\c1cccnc1 ?
Data returned: > 100 µM

Data request: TGI for N#Cc1c(N2CCCC2)nsc1NCc1ccccc1 ?
Data returned: > 100 µM
